Taken from patent US20250027068.

target: pooled human IgG (human IgG1,2,3 and 4)
EXPERIMENTAL READOUT: Enzyme Activity Endpoint Assay: Fc (ng/µL)
Numbers only, in ng/µL.

PROTEIN	EXPERIMENTAL READOUT	READOUT VALUE
PRT-170 (protein) MANQEIRYSEVTPYHVTSVWTKGVTPPTDFIKGEDVFHAPYKAHQGWYDITKTFNGKDDLLCGAATAGNMLHWWFDQNKDQIKRYLEEHPEKQKINFNGEQMFDVKEAIDTKNSQLDSKLFEYFKEKAFPYLSTKHLGVFPDHVIDMFINGYRLSLTNHGPTPVKEGSKDPRGGIFDAVFTRGDQSKLLTSRHDFKEKNLKEISDLIKKELTEGKALGLSHTYANVRINHVINLWGADFDSNGNLKAIYVTDSDSNASIGMKKYFVGVNSAGKVAISAKEIKEDNIGAQVLGLFTLSTGQDSWNQTN	Enzyme Activity Endpoint Assay: Fc	193

Okay, now this protein:
Query string: Specify reported Enzyme Activity Endpoint Assay: Fc for the protein shown: PRT-182 (protein) MANQEIRYSEVTPYHVTSVWTKGVTPPANFTQGEDVFHAPYVANQGWYDITKTFNGKDDLLCGAATAGNMLHWWFDQNKDQIKRYLEEHPEKQKINFNGEQMFDVKEAIDTKNHQLDSKLFEYFKEKAFPYLSTKHLGVFPDHVIDMFINGYRLSLTNHGPTPVKEGSKDPRGGIFDAVFTRGDQSKLLTSRHDFKEKNLKEISDLIKKELTEGKALGLSHTYANVRINHVINLWGADFDSNGNLKAIYVTDSDSNASIGMKKYFVGVNSAGKVAISAKKIKEDNIGAQVLGLFTLSTGQDSWNQTN
Result string: 167
